Each record here notes measured %Inh.
- Test system: CAMK1D;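 further: KINOMEscan kinase panel screen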
- Measurement Parameters: concentration: 1 μM, replicates: in singlicate; n = 1

# Molecule, %Inh / %
records = [
    ("COc1ccc(NC(=O)Nc2ccc(C)c(-c3ccc(C(=O)Nc4ccncc4)cc3)c2)cc1 [GSK1398475]", 3),
    ("O=C(CCO)NCCn1ccc2ncnc(Nc3ccc(Oc4cccc(C(F)(F)F)c4)c(Cl)c3)c21", 7),
    ("Cc1cccc(-c2nc(Nc3ccc4[nH]nnc4c3)c3ccccc3n2)n1 [GW867587]", 0),
    ("CCc1nc(-c2cccc(C)c2)c(-c2ccnc(NC(=O)c3ccccc3)c2)s1", 7),
    ("Nc1nc(-c2ccccn2)c(-c2ccnc3ccccc23)s1 [GW548057]", 8),
    ("OCCOCCn1ccc2ncnc(Nc3ccc(Oc4cccc(Cl)c4)c(Cl)c3)c21", 0),
    ("O=C(NCCCN1CCCC1=O)c1cnc(NCc2cc(Cl)ccc2Cl)nc1NC1CCNCC1", 6),
    ("C[C@H]1CC[C@@H](C(=O)Nc2ccccc2)CN1c1cc(-c2ccc3c(N)n[nH]c3c2)nc(N)n1 [GSK2283293]", 17),
    ("O=C(Nc1ccccc1)Nc1ccc(Oc2ccc3nccn3n2)cc1", 0),
    ("Nc1n[nH]c2nnc(-c3ccccc3)cc12 [SB-517389]", 28),
    ("CNc1nccc(-c2c(-c3ccc(F)cc3)ncn2C2CCN(C)CC2)n1 [SB-222903]", 0),
    ("Cn1ccc2ncnc(Nc3ccc(Oc4cccc(Cl)c4)c(Cl)c3)c21", 11),
    ("Cl.Fc1ccccc1COc1ccc(Nc2ncnc3ccc(-c4nnc(C(F)(F)F)o4)cc23)cc1Cl [GW424170]", 8),
    ("Fc1ccc(Nc2nccc(-c3c(-c4ccc(Cl)cc4)nn4ncccc34)n2)cc1F [GW829058]", 32),
    ("FC(F)(F)c1ccc(-c2cc(-c3c[nH]nc3-c3ccccn3)ccn2)cc1 [GW599550]", 22),
    ("Cl.c1ccc(Cn2ncc3cc(Nc4ncnc5ccccc45)ccc32)cc1 [GW273749]", 17),
    ("C[C@@H]1CCN(C(=O)CO)C[C@@H]1N(C)c1ncnc2[nH]ccc12", 0),
    ("COc1cc2ncnc(Nc3ccc(OCc4ccccc4Br)c(Cl)c3)c2cc1OC.Cl [GI261590]", 0),
    ("Oc1ccc2ncnc(Nc3ccc(OCc4ccccc4)cc3)c2c1 [GI262866]", 4),
    ("Nc1nc(-c2cccnc2)c(-c2ccnc3ccccc23)s1 [GW684083]", 6),
    ("CC(=O)Nc1n[nH]c2ncc(-c3ccccc3)cc12 [SB-548492]", 18),
    ("CN1CCC(n2cnc(-c3ccc(F)cc3)c2-c2ccnc(NC3CCNCC3)n2)CC1 [SB-229482]", 0),
    ("Cc1ccc(O)cc1Nc1cc(C(F)(F)F)nc2ccc(-c3ccncc3)cc12 [GW630823]", 14),
    ("Fc1cccc(COc2ccc(Nc3ncnc4sc(-c5ccc[nH]5)cc34)cc2Cl)c1 [GW707818]", 22),
    ("c1ccc(-c2ccc3c(-c4ccnc(Nc5ccc6c(c5)OCCO6)n4)cnn3n2)cc1 [GW818941]", 8),
    ("Cn1ccc2ncnc(Oc3ccc(NC(=O)Nc4cccnc4)c(Cl)c3)c21", 0),
    ("CCn1c(-c2ccncc2)nc2cnccc21 [SB-735216]", 6),
    ("CC(C)N1CCC(n2cnc(-c3ccc(F)cc3)c2-c2ccnc(N)n2)CC1 [SB-223132]", 0),
    ("O=C(Nc1ccccc1F)NC1CCN(c2ccnc(Nc3ccc(F)cc3)n2)C1 (stereo not shown) [GSK1379722]", 0),
    ("CSc1ccc(NC2=C(c3ccccc3Cl)C(=O)NC2=O)cc1 [SB-342411]", 22),
    ("Clc1cc(Nc2ncnc3cc[nH]c23)ccc1OCc1ccccn1", 33),
    ("COC(=O)c1c(-c2ccccc2)c2cc(Cl)ccc2c(=O)n1Cc1ccc(S(C)(=O)=O)cc1", 0),
    ("Nc1nccc2scc(-c3ccc4c(c3)CCN4C(=O)Cc3cc(F)ccc3F)c12 [GSK2587663]", 21),
    ("O=c1cc(N2CCOCC2)nc2n(Cc3cccc(Cl)c3)ccn12 [GSK2296823]", 22),
    ("N#Cc1ccc(Oc2ccc(Nc3ncnc4cc[nH]c34)cc2Cl)cc1", 33),
    ("CCC(CC)(CC)n1cnc2c(N)ncnc21 [SKF-97620]", 4),
    ("COc1cc2c(Nc3cccc(NC(=O)c4ccccc4)c3)ncnc2cc1OCCCN1CCOCC1 [GSK223810]", 18),
]
